# Tested Target: σ1-receptor (Cavia porcellus, UniProt Q60492)
# Construct: guinea pig brains were homogenized; from tissue; host or cells: guinea pig brain membranes
# Sequence (Q60492 whole entry): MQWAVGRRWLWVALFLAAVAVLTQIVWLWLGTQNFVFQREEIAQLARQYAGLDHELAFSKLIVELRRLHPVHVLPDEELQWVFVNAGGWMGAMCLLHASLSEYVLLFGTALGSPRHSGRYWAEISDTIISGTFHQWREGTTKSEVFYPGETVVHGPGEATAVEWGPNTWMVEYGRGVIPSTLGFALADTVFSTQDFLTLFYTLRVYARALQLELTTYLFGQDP
# Assay Info: Sigma-1 receptor binding assay, [3H](+)-pentazocine displacement in guinea pig brain membranes
# Assay Setup: compound at 0.01 μM; [3H](+)-pentazocine 0.5 nM; guinea pig brain membranes; read-out: Sigma-1 Inhibition percent (0.01 μM)
Counter-ions that a name gives are not always drawn.
Output fulfilled for inhibition at 0.01 µM not less than 60%; output not fulfilled otherwise.

INSERT INTO results (compound, classification) VALUES
  ('Cc1nc([S+]([O-])CCN2CCCC2)nn1-c1ccc(Cl)c(Cl)c1 (stereo not drawn)', 'not fulfilled'),
  ('Cc1nc(SCCCN2CCC(c3ccccc3)CC2)nn1-c1ccc(Cl)c(Cl)c1 [compound 9, oxalate]', 'fulfilled'),
  ('Cc1nc(SCCN2CCCCCC2)nn1-c1ccc(Cl)c(Cl)c1 [compound 6, oxalate]', 'fulfilled'),
  ('CCN(CC)CCOc1nc(C)n(-c2ccc(Cl)c(Cl)c2)n1', 'not fulfilled'),
  ('Cc1nc(SCCCCN2CCC(c3ccccc3)CC2)nn1-c1ccc(Cl)c(Cl)c1 [compound 10, oxalate]', 'not fulfilled'),
  ('Cc1nc(SCCCN2CCCC2)nn1-c1ccc(Cl)c(Cl)c1', 'not fulfilled'),
  ('Cc1nc(S(=O)(=O)CCN2CCCC2)nn1-c1ccc(Cl)c(Cl)c1', 'fulfilled'),
  ('Cc1nc(S(=O)(=O)CCCCN2CCOCC2)nn1-c1ccc(Cl)c(Cl)c1', 'not fulfilled'),
  ('Cc1nc(SCCCCCN2CCCC2)nn1-c1ccc(Cl)c(Cl)c1 [compound 14, oxalate]', 'not fulfilled');
